# tested system: SHP2-C SH2
# test: SH2 binding enrichment of the phosphorylated peptide, bacterial display (enrichment ratio); higher = better substrate or ligand; peptides without Tyr show the background
Returns one of Fulfilled or Not fulfilled; Fulfilled when SH2 binding enrichment is >= 0.8.

Solved entries (count: 2):
[
  {
    "macromolecule sequence": "ALDHKYHGGGG [HBB_Y146_A143D]",
    "tested system": "SHP2-C SH2",
    "label value": "Not fulfilled"
  },
  {
    "macromolecule sequence": "HRLSTYTKMLF [CHST8_Y251]",
    "tested system": "SHP2-C SH2",
    "label value": "Fulfilled"
  }
]

Query sequence follows.
Qu. Could you verify whether the entry KERNQYGEVMV [MMP21_Y347] shows SH2 binding enrichment of no less than 0.8?
Ans. Fulfilled

====

# Test system: c-Src
# test: phosphorylation enrichment, bacterial display (enrichment ratio); higher = better substrate or ligand; peptides without Tyr show the background
Record form. Attribute: phosphorylation enrichment. Fill in for each entry.
One number for each entry.

[
  {
    "macromolecule sequence": "QDLRLYRPHLA [BTK_Y617_G613D]",
    "tested system": "c-Src",
    "phosphorylation enrichment": 0.474
  },
  {
    "macromolecule sequence": "LAIERYVVVSK [RHO_Y136_C140S]",
    "tested system": "c-Src",
    "phosphorylation enrichment": 0.396
  },
  {
    "macromolecule sequence": "TLKDVYDDGKY [RPS6KA3_Y483]",
    "tested system": "c-Src",
    "phosphorylation enrichment": 0.62
  },
  {
    "macromolecule sequence": "NLVSEYQQYQD [TUBB3_Y422_D417N]",
    "tested system": "c-Src",
    "phosphorylation enrichment": 0.541
  },
  {
    "macromolecule sequence": "EAVSIYQFHGQ [CBLC_Y402]",
    "tested system": "c-Src",
    "phosphorylation enrichment": 7.06
  }
]

Could you tell me phosphorylation enrichment for each of these sequences? They are listed below.
1. AIYEGYALPHA [ACTC1_Y171_P166A]
2. WHHTFYNELCV [ACTC1_Y93_R97C]
3. EQSGSYIWVLA [DLG1_Y895_P899L]
4. TLERHYKELQA [SPTBN2_Y834_E835K]
5. GPKSTYISSAG [GOLGA5_Y62_A67G]
6. TESALYGCTIL [MAP3K21_Y724_V728I]
7. LIHLHYIRKDY [BBS4_Y43]
8. DSMQSYDLDFP [UNC13B_Y243_YF]

Ans.
1. 11.3
2. 0.73
3. 0.476
4. 0.472
5. 0.365
6. 6.06
7. 0.393
8. 0.569

====

Record form. Attribute: SH2 binding enrichment. Fill in for each entry.
# tested system: c-Src SH2
# test: SH2 binding enrichment of the phosphorylated peptide, bacterial display (enrichment ratio); higher = better substrate or ligand; peptides without Tyr show the background

Example entries begin here.
[
  {
    "macromolecule sequence": "DEQKKYYNAMK [SCN5A_Y1494_E1489D]",
    "tested system": "c-Src SH2",
    "result": 0.621
  },
  {
    "macromolecule sequence": "DLDPNYVLSSR [CKM_Y125]",
    "tested system": "c-Src SH2",
    "result": 0.528
  },
  {
    "macromolecule sequence": "SGFESYGSSSY [RPA2_Y9]",
    "tested system": "c-Src SH2",
    "result": 0.541
  },
  {
    "macromolecule sequence": "FRPHLYGTPSR [ADGRE2_Y670_S665F]",
    "tested system": "c-Src SH2",
    "result": 1.77
  }
]

Could you tell me SH2 binding enrichment for each of these sequences? They are listed below.
1. CEETFYTMKMN [MASP2_Y401_V405M]
2. HLLRIYFDITD [MMP27_Y307_W304L_YF]
3. RASDYYSQQMA [GBP6_Y334_A331S]

Ans.
1: 0.575; 2: 0.536; 3: 0.521

Attribution: the supplement of paper PMC10065799
